Experiment: in vitro
Details: human, human plasma
MEASURED ENDPOINT: remaining at 2 h, 100 μM

Qu. Provide remaining at 2 h, 100 μM value for the following molecule: N=C(N)NCCC[C@@H]1NC(=O)[C@H](CCCNC(=N)N)NC(=O)[C@H](CCCNC(=N)N)NC(=O)[C@H](Cc2c[nH]c3ccccc23)NC(=O)[C@H](Cc2c[nH]c3ccccc23)NC(=O)[C@H](Cc2c[nH]c3ccccc23)NC(=O)[C@H](Cc2c[nH]c3ccccc23)NC(=O)[C@H](CCCNC(=N)N)NC(=O)[C@H](CCCNC(=N)N)NC1=O [5a, [R5W4]]
Ans. ~56%

---

Tested on: human red blood cells (hRBCs)
Settings: red cells of human, 2 h
Peptide text beside a SMILES is read from it.
Entries and their measured HC50 follow.
Quick reminder: number only, in µg/mL, skip the unit.

These solved cases illustrate the format of a correct answer.
[[record]]
compound = "N=C(N)NCCC[C@@H]1NC(=O)[C@H](CCCNC(=N)N)NC(=O)[C@H](CCCNC(=N)N)NC(=O)[C@H](Cc2c[nH]c3ccccc23)NC(=O)[C@H](Cc2c[nH]c3ccccc23)NC(=O)[C@H](Cc2c[nH]c3ccccc23)NC(=O)[C@H](Cc2c[nH]c3ccccc23)NC(=O)[C@H](Cc2c[nH]c3ccccc23)NC(=O)[C@H](Cc2c[nH]c3ccccc23)NC(=O)[C@H](Cc2c[nH]c3ccccc23)NC(=O)[C@H](CCCNC(=N)N)NC(=O)[C@H](CCCNC(=N)N)NC1=O [5d, [R5W7]] (cyclo(RRRRRWWWWWWW))"
system_tested = "human red blood cells (hRBCs)"
endpoint_unit = "µg/mL"
result_value = 115

[[record]]
compound = "N=C(N)NCCC[C@@H]1NC(=O)[C@H](CCCNC(=N)N)NC(=O)[C@H](CCCNC(=N)N)NC(=O)[C@H](Cc2c[nH]c3ccccc23)NC(=O)[C@H](Cc2c[nH]c3ccccc23)NC(=O)[C@H](Cc2c[nH]c3ccccc23)NC(=O)[C@H](Cc2c[nH]c3ccccc23)NC(=O)[C@H](CCCNC(=N)N)NC(=O)[C@H](CCCNC(=N)N)NC1=O [5a, [R5W4]]"
system_tested = "human red blood cells (hRBCs)"
endpoint_unit = "µg/mL"
result_value = 340

[[record]]
compound = "N=C(N)NCCC[C@@H]1NC(=O)[C@H](CCCNC(=N)N)NC(=O)[C@H](CCCNC(=N)N)NC(=O)[C@H](Cc2c[nH]c3ccccc23)NC(=O)[C@H](Cc2c[nH]c3ccccc23)NC(=O)[C@H](Cc2c[nH]c3ccccc23)NC(=O)[C@H](Cc2c[nH]c3ccccc23)NC(=O)[C@H](Cc2c[nH]c3ccccc23)NC(=O)[C@H](Cc2c[nH]c3ccccc23)NC(=O)[C@H](Cc2c[nH]c3ccccc23)NC(=O)[C@H](CCCNC(=N)N)NC1=O [4d, [R4W7]] (cyclo(RRRRWWWWWWW))"
system_tested = "human red blood cells (hRBCs)"
endpoint_unit = "µg/mL"
result_value = 60

[[record]]
compound = "N=C(N)NCCC[C@@H]1NC(=O)[C@H](CCCNC(=N)N)NC(=O)[C@H](CCCNC(=N)N)NC(=O)[C@H](CCCNC(=N)N)NC(=O)[C@H](Cc2c[nH]c3ccccc23)NC(=O)[C@H](Cc2c[nH]c3ccccc23)NC(=O)[C@H](Cc2c[nH]c3ccccc23)NC(=O)[C@H](Cc2c[nH]c3ccccc23)NC(=O)[C@H](Cc2c[nH]c3ccccc23)NC(=O)[C@H](Cc2c[nH]c3ccccc23)NC(=O)[C@H](CCCNC(=N)N)NC(=O)[C@H](CCCNC(=N)N)NC1=O [6c, [R6W6]] (cyclo(RRRRRRWWWWWW))"
system_tested = "human red blood cells (hRBCs)"
endpoint_unit = "µg/mL"
result_value = 170


Would you kindly look at the next entry?
Qu. Quickly give me recorded HC50 for N=C(N)NCCC[C@@H]1NC(=O)[C@H](CCCNC(=N)N)NC(=O)[C@H](CCCNC(=N)N)NC(=O)[C@H](Cc2c[nH]c3ccccc23)NC(=O)[C@H](Cc2c[nH]c3ccccc23)NC(=O)[C@H](Cc2c[nH]c3ccccc23)NC(=O)[C@H](Cc2c[nH]c3ccccc23)NC(=O)[C@H](Cc2c[nH]c3ccccc23)NC(=O)[C@H](Cc2c[nH]c3ccccc23)NC(=O)[C@H](CCCNC(=N)N)NC1=O [4c, [R4W6]]
Ans. 75

---

Some compounds, each annotated with its measured MIC.
System: P. aeruginosa (ATCC 27883)
Assay: microbe, parasite or virus in culture
Conditions: Pseudomonas aeruginosa, ATCC27883, read-out: MIC P. aeruginosa (ATCC 27883)
Bridge positions count the residues as written; N and C are the ends. Square brackets hold non-standard residues; d marks the D form. Peptide text beside a SMILES is read from it. * marks the point of attachment. X1 = CC[C@H](C)CCCCC(=O)*; Dab = NCC[C@H](N)C(=O)O
Please state the figure in µg/mL; there is no need to write the unit.

[[record]]
compound = "CN(C)[C@@H]1C(O)=C(C(N)=O)C(=O)[C@@]2(O)C(O)=C3C(=O)c4c(O)cccc4[C@@](C)(O)[C@H]3C[C@@H]12"
system_tested = "P. aeruginosa (ATCC 27883)"
result_value = 32


Qu. For Cc1ncc([N+](=O)[O-])n1CCO , write its MIC.
Ans. 32

Qu. Provide measured MIC value, entry: CC[C@H](C)CCCCC(=O)N[C@@H](CCN)C(=O)N[C@H](C(=O)N[C@@H](CCN)C(=O)N[C@H]1CCNC(=O)[C@H]([C@@H](C)O)NC(=O)[C@H](CCN)NC(=O)[C@H](CCN)NC(=O)[C@H](CC(C)C)NC(=O)[C@@H](Cc2ccccc2)NC(=O)[C@H](CCN)NC1=O)[C@@H](C)O [polymyxin B] (X1-[Dab]T[Dab][Dab][Dab][dF]L[Dab][Dab]T; lactam 4-C)
Ans. 1

---

System: MRSA (ATCC BAA-1556)
Parameters: unit not given beside the values
Details: supplementary csv, unit not given
Square brackets hold non-standard residues; d marks the D form. Peptide text beside a SMILES is read from it.
MIC MRSA listing for selected molecules.
Simply state the number, no unit and no words.

These recorded examples may help you get a feel for the data.
[[record]]
molecule = "N=C(N)NCCC[C@@H]1NC(=O)[C@H](CCCNC(=N)N)NC(=O)[C@H](Cc2c[nH]c3ccccc23)NC(=O)[C@H](Cc2c[nH]c3ccccc23)NC(=O)[C@H](Cc2c[nH]c3ccccc23)NC(=O)[C@H](CCCNC(=N)N)NC1=O [3a, [R3W3]] (cyclo(WWWRRR); ring closure inferred)"
result_value = 16

[[record]]
molecule = "N=C(N)NCCC[C@@H]1NC(=O)[C@H](CCCNC(=N)N)NC(=O)[C@H](CCCNC(=N)N)NC(=O)[C@H](Cc2c[nH]c3ccccc23)NC(=O)[C@H](Cc2c[nH]c3ccccc23)NC(=O)[C@H](Cc2c[nH]c3ccccc23)NC(=O)[C@H](Cc2c[nH]c3ccccc23)NC(=O)[C@H](Cc2c[nH]c3ccccc23)NC(=O)[C@H](Cc2c[nH]c3ccccc23)NC(=O)[C@H](Cc2c[nH]c3ccccc23)NC(=O)[C@H](CCCNC(=N)N)NC1=O [4d, [R4W7]] (cyclo(RRRRWWWWWWW))"
result_value = 256

[[record]]
molecule = "N=C(N)NCCC[C@@H]1NC(=O)[C@H](CCCNC(=N)N)NC(=O)[C@H](Cc2c[nH]c3ccccc23)NC(=O)[C@H](Cc2c[nH]c3ccccc23)NC(=O)[C@H](Cc2c[nH]c3ccccc23)NC1=O [2a, [R2W3]] (cyclo(RRWWW); ring closure inferred)"
result_value = 32


Qu. Param request: MIC MRSA | system MRSA (ATCC BAA-1556) | item N=C(N)NCCC[C@H]1NC(=O)[C@H](Cc2c[nH]c3ccccc23)NC(=O)[C@H](Cc2c[nH]c3ccccc23)NC(=O)[C@H](Cc2c[nH]c3ccccc23)NC(=O)[C@H](Cc2c[nH]c3ccccc23)NC(=O)[C@@H](CCCNC(=N)N)NC(=O)[C@@H](CCCNC(=N)N)NC(=O)[C@@H](CCCNC(=N)N)NC1=O [4a, [dR4W4]] (cyclo([dR][dR][dR][dR]WWWW))
Ans. 8

Qu. Quote MIC MRSA with test system MRSA (ATCC BAA-1556) for N=C(N)NCCC[C@@H]1NC(=O)[C@H](CCCNC(=N)N)NC(=O)[C@H](Cc2c[nH]c3ccccc23)NC(=O)[C@H](Cc2c[nH]c3ccccc23)NC(=O)[C@H](Cc2c[nH]c3ccccc23)NC(=O)[C@H](Cc2c[nH]c3ccccc23)NC(=O)[C@H](Cc2c[nH]c3ccccc23)NC(=O)[C@H](Cc2c[nH]c3ccccc23)NC(=O)[C@H](CCCNC(=N)N)NC1=O [3d, [R3W6]]
Ans. 64

Qu. Given N=C(N)NCCC[C@@H]1NC(=O)[C@H](CCCNC(=N)N)NC(=O)[C@H](CCCNC(=N)N)NC(=O)[C@H](CCCNC(=N)N)NC(=O)[C@H](Cc2c[nH]c3ccccc23)NC(=O)[C@H](Cc2c[nH]c3ccccc23)NC(=O)[C@H](Cc2c[nH]c3ccccc23)NC(=O)[C@H](Cc2c[nH]c3ccccc23)NC(=O)[C@H](Cc2c[nH]c3ccccc23)NC(=O)[C@H](Cc2c[nH]c3ccccc23)NC(=O)[C@H](CCCNC(=N)N)NC(=O)[C@H](CCCNC(=N)N)NC(=O)[C@H](CCCNC(=N)N)NC1=O [7c, [R7W6]] (cyclo(RRRRRRRWWWWWW)) , report its MIC MRSA on MRSA (ATCC BAA-1556).
Ans. 32

Qu. State the measured MIC MRSA (MRSA (ATCC BAA-1556)) of N=C(N)NCCC[C@@H]1NC(=O)[C@H](CCCNC(=N)N)NC(=O)[C@H](CCCNC(=N)N)NC(=O)[C@H](CCCNC(=N)N)NC(=O)[C@H](Cc2c[nH]c3ccccc23)NC(=O)[C@H](Cc2c[nH]c3ccccc23)NC(=O)[C@H](Cc2c[nH]c3ccccc23)NC(=O)[C@H](Cc2c[nH]c3ccccc23)NC(=O)[C@H](Cc2c[nH]c3ccccc23)NC(=O)[C@H](CCCNC(=N)N)NC(=O)[C@H](CCCNC(=N)N)NC1=O [6b, [R6W5]] (cyclo(RRRRRRWWWWW))
Ans. 8

Qu. // fetch MIC MRSA; item: N=C(N)NCCC[C@@H]1NC(=O)[C@H](CCCNC(=N)N)NC(=O)[C@H](Cc2c[nH]c3ccccc23)NC(=O)[C@H](Cc2c[nH]c3ccccc23)NC(=O)[C@H](Cc2c[nH]c3ccccc23)NC(=O)[C@H](Cc2c[nH]c3ccccc23)NC(=O)[C@H](CCCNC(=N)N)NC1=O [3b, [R3W4]] (cyclo(RRRWWWW); ring closure inferred) ; system: MRSA (ATCC BAA-1556)
Ans. 8

Qu. Using MRSA (ATCC BAA-1556) as the test system, report measured MIC MRSA of N=C(N)NCCC[C@@H]1NC(=O)[C@H](CCCNC(=N)N)NC(=O)[C@H](CCCNC(=N)N)NC(=O)[C@H](Cc2c[nH]c3ccccc23)NC(=O)[C@H](Cc2c[nH]c3ccccc23)NC(=O)[C@H](Cc2c[nH]c3ccccc23)NC(=O)[C@H](Cc2c[nH]c3ccccc23)NC(=O)[C@H](Cc2c[nH]c3ccccc23)NC(=O)[C@H](CCCNC(=N)N)NC(=O)[C@H](CCCNC(=N)N)NC1=O [5b, [R5W5]] .
Ans. 4
